// provenance: the supplement of paper PMC4862054

test system: CAL-148; assay: normalised response (% of control), CellTiter-Glo; higher = more viable cells (100 = DMSO, 0 = benzethonium chloride kill control); conditions: incubation time: 72 h
measuredAttribute: normalised response (%)

- Cc1ccc([N+](=O)[O-])cc1S(=O)(=O)N(C)/N=C/c1cnc2ccc(Br)cn12 [PIK-75] (10 nM): 90.3
- Oc1ncnc2[nH]ncc12 [Allopurinol] (1000 nM): 99.2
- COc1cc(F)c(F)c(Nc2ccc(I)cc2F)c1NS(=O)(=O)C1(C[C@H](O)CO)CC1 [Refametinib] (1000 nM): 89.2
- CC1(C)CCC(CN2CCN(c3ccc(C(=O)NS(=O)(=O)c4ccc(NCC5CCOCC5)c([N+](=O)[O-])c4)c(Oc4cnc5[nH]ccc5c4)c3)CC2)=C(c2ccc(Cl)cc2)C1 [ABT-199] (1 nM): 100
- Oc1ncnc2[nH]ncc12 [Allopurinol] (1 nM): 100
- CC(=O)c1c(C)c2cnc(Nc3ccc(N4CCNCC4)cn3)nc2n(C2CCCC2)c1=O [Palbociclib] (10 nM): 87
- Cc1sc2c(c1C)C(c1ccc(Cl)cc1)=N[C@@H](CC(=O)OC(C)(C)C)c1nnc(C)n1-2 [(+)JQ1] (1 nM): 113
- Nc1nc2[nH]cnc2c(=S)[nH]1 [Thioguanine] (1 nM): 95.3
- C[C@]1(O)C[C@@H](c2nc(-c3ccc4ccc(-c5ccccc5)nc4c3)c3c(N)nccn32)C1 [Linsitinib] (1 nM): 98
- COc1cc2c(cc1O)CC[C@@H]1[C@@H]2CC[C@]2(C)[C@@H](O)CC[C@@H]12 [2-methoxyestradiol] (1 nM): 97.3
- CC[C@@H]1C(=O)OC[C@@H]1Cc1cncn1C [Pilocarpine] (4 nM): 96.4
- Cc1ccc([N+](=O)[O-])cc1S(=O)(=O)N(C)/N=C/c1cnc2ccc(Br)cn12 [PIK-75] (1000 nM): 48.8
- CC(=O)c1c(C)c2cnc(Nc3ccc(N4CCNCC4)cn3)nc2n(C2CCCC2)c1=O [Palbociclib] (1000 nM): 86.2
- O=C1CN2Cc3c(ccc(Cl)c3Cl)N=C2N1 [Anagrelide] (10 nM): 93.9

----------
tested on: HCC1143; assay: drug sensitivity score (DSS), CellTox Green (DSS (AUC-based score)); higher = stronger drug effect (viability inhibition or cytotoxicity); extreme values may be limits of the assay; conditions: incubation time: 72 h
drug sensitivity score values for the compounds below.
measuredAttribute: drug sensitivity score

- Cn1cnc2c(F)c(Nc3ccc(Br)cc3Cl)c(C(=O)NOCCO)cc21 [Selumetinib]: 0
- Nc1nc2[nH]cnc2c(=S)[nH]1 [Thioguanine]: 0
- CC[C@@H]1C(=O)OC[C@@H]1Cc1cncn1C [Pilocarpine]: 0
- Cn1cc(C2=Nc3cc(NC(=O)C(N)C4CCCCC4)cc4c3C2=CNNC4=O)cn1 (stereo unspecified): 0
- CC1=C2C[C@H]3[C@@H](CC=C4C[C@@H](O)CC[C@@]43C)[C@@H]2CC[C@]12O[C@@H]1C[C@H](C)CN[C@H]1[C@H]2C [Cyclopamine]: 2.47
- CC(=O)c1c(C)c2cnc(Nc3ccc(N4CCNCC4)cn3)nc2n(C2CCCC2)c1=O [Palbociclib]: 0

----------
test system: CAL-51; assay: drug sensitivity score (DSS), CellTiter-Glo (DSS (AUC-based score)); higher = stronger drug effect (viability inhibition or cytotoxicity); extreme values may be limits of the assay; conditions: incubation time: 72 h
measuredAttribute: drug sensitivity score

• COc1cc(F)c(F)c(Nc2ccc(I)cc2F)c1NS(=O)(=O)C1(C[C@H](O)CO)CC1 = 0
• Cn1cc(C2=Nc3cc(NC(=O)C(N)C4CCCCC4)cc4c3C2=CNNC4=O)cn1 (stereo unspecified) = 5.76
• Nc1nc2[nH]cnc2c(=S)[nH]1 = 5.29
• C[C@]1(O)C[C@@H](c2nc(-c3ccc4ccc(-c5ccccc5)nc4c3)c3c(N)nccn32)C1 = 0
• COc1cc2c(cc1O)CC[C@@H]1[C@@H]2CC[C@]2(C)[C@@H](O)CC[C@@H]12 = 5.34
• CC(=O)N(O)CCCCCNC(=O)CCC(=O)N(O)CCCCCNC(=O)CCC(=O)N(O)CCCCCN = 3.33

----------
system: HCC1937; experiment: drug sensitivity score (DSS), CellTiter-Glo (DSS (AUC-based score)); higher = stronger drug effect (viability inhibition or cytotoxicity); extreme values may be limits of the assay; settings: incubation time: 72 h
measuredAttribute: drug sensitivity score

* O=C1CN2Cc3c(ccc(Cl)c3Cl)N=C2N1 [Anagrelide] | 0
* CC1=C2C[C@H]3[C@@H](CC=C4C[C@@H](O)CC[C@@]43C)[C@@H]2CC[C@]12O[C@@H]1C[C@H](C)CN[C@H]1[C@H]2C | 0
* Cc1sc2c(c1C)C(c1ccc(Cl)cc1)=N[C@@H](CC(=O)OC(C)(C)C)c1nnc(C)n1-2 [(+)JQ1] | 3.6
* Oc1ncnc2[nH]ncc12 | 0
* Cn1cc(C2=Nc3cc(NC(=O)C(N)C4CCCCC4)cc4c3C2=CNNC4=O)cn1 (stereo not given) | 4.78

----------
test system: HCC1937; assay: normalised response (% of control), CellTox Green; higher = less cell death (100 = DMSO, 0 = benzethonium chloride kill control); conditions: incubation time: 72 h
measuredAttribute: normalised response (%)

- CC(=O)N(O)CCCCCNC(=O)CCC(=O)N(O)CCCCCNC(=O)CCC(=O)N(O)CCCCCN [Deferoxamine] (10000 nM): 90.9
- Oc1ncnc2[nH]ncc12 [Allopurinol] (10000 nM): 76
- Cc1ccc([N+](=O)[O-])cc1S(=O)(=O)N(C)/N=C/c1cnc2ccc(Br)cn12 [PIK-75] (1000 nM): 99.3
- O=NN(CCCl)C(=O)NCCCl [Carmustine] (100 nM): 103
- Oc1ncnc2[nH]ncc12 [Allopurinol] (1000 nM): 89.9
- Cn1cc(C2=Nc3cc(NC(=O)C(N)C4CCCCC4)cc4c3C2=CNNC4=O)cn1 (centres undefined) (100 nM): 76.5
- CC1(C)CNc2cc(NC(=O)c3cccnc3NCc3ccncc3)ccc21 [Motesanib] (10000 nM): 98.6
- C[C@]1(O)C[C@@H](c2nc(-c3ccc4ccc(-c5ccccc5)nc4c3)c3c(N)nccn32)C1 [Linsitinib] (1000 nM): 124
- Nc1nc2[nH]cnc2c(=S)[nH]1 [Thioguanine] (10000 nM): 83.7

----------
test system: CAL-51; assay: normalised viability (% of control), CellTiter-Blue; higher = more viable cells (about 100 = DMSO control); conditions: incubation time: 72 h
# normalised viability listing for each entry below
measuredAttribute: normalised viability (%)

* C[C@]1(O)C[C@@H](c2nc(-c3ccc4ccc(-c5ccccc5)nc4c3)c3c(N)nccn32)C1 [OSI-906] (3000 nM) | 88.3
* CC(C)(C)c1cnc(CSc2cnc(NC(=O)C3CCNCC3)s2)o1 [SNS-032] (3000 nM) | 8.52
* CC(=O)c1c(C)c2cnc(Nc3ccc(N4CCNCC4)cn3)nc2n(C2CCCC2)c1=O (3000 nM) | 69.6
* Cn1cnc2c(F)c(Nc3ccc(Br)cc3Cl)c(C(=O)NOCCO)cc21 [Selumetinib] (3000 nM) | 86.9
* Nc1nc2[nH]cnc2c(=S)[nH]1 [Thioguanine] (3000 nM) | 103
* CC[C@@H]1C(=O)OC[C@@H]1Cc1cncn1C [Pilocarpine] (12000 nM) | 107
* O=C1CN2Cc3c(ccc(Cl)c3Cl)N=C2N1 [Anagrelide] (3000 nM) | 78.4
* COc1cc(F)c(F)c(Nc2ccc(I)cc2F)c1NS(=O)(=O)C1(C[C@H](O)CO)CC1 [RDEA119] (3000 nM) | 69.9
* C[C@]12CC[C@@H]3c4ccc(OC(=O)N(CCCl)CCCl)cc4CC[C@H]3[C@@H]1CC[C@@H]2O [Estramustine] (297 nM) | 92.5

----------
tested on: HCC1143; assay: normalised viability (% of control), CellTiter-Blue; higher = more viable cells (about 100 = DMSO control); conditions: 100 nM; incubation time: 72 h
measuredAttribute: normalised viability (%)

• COc1cc2c(cc1O)CC[C@@H]1[C@@H]2CC[C@]2(C)[C@@H](O)CC[C@@H]12 = 99.8
• O=C1CN2Cc3c(ccc(Cl)c3Cl)N=C2N1 [Anagrelide] = 84.8
• O=P(O)(O)C(O)(Cn1ccnc1)P(=O)(O)O = 89.1
• CC(=O)c1c(C)c2cnc(Nc3ccc(N4CCNCC4)cn3)nc2n(C2CCCC2)c1=O = 82.3

----------
tested on: MDA-MB-468; assay: normalised response (% of control), CellTox Green; higher = less cell death (100 = DMSO, 0 = benzethonium chloride kill control); settings: incubation time: 72 h
measuredAttribute: normalised response

- COc1cc2c(cc1O)CC[C@@H]1[C@@H]2CC[C@]2(C)[C@@H](O)CC[C@@H]12 [2-methoxyestradiol] (100 nM): 69.5%
- Nc1ncn([C@@H]2O[C@H](CO)[C@@H](O)[C@H]2O)c(=O)n1 [Azacitidine] (1000 nM): 33.9%
- C[C@]1(O)C[C@@H](c2nc(-c3ccc4ccc(-c5ccccc5)nc4c3)c3c(N)nccn32)C1 [Linsitinib] (1000 nM): 75.2%
- CC(C)(C)c1cnc(CSc2cnc(NC(=O)C3CCNCC3)s2)o1 [SNS-032] (100 nM): 94.5%
- Nc1nc2[nH]cnc2c(=S)[nH]1 [Thioguanine] (10000 nM): 51.8%
- O=C1CN2Cc3c(ccc(Cl)c3Cl)N=C2N1 [Anagrelide] (10000 nM): 67%
- CC1=C2C[C@H]3[C@@H](CC=C4C[C@@H](O)CC[C@@]43C)[C@@H]2CC[C@]12O[C@@H]1C[C@H](C)CN[C@H]1[C@H]2C [Cyclopamine] (100 nM): 88.8%
- CC(=O)O[C@@]12CO[C@@H]1C[C@H](O)[C@@]1(C)C(=O)[C@H](O)C3=C(C)[C@@H](OC(=O)[C@H](O)[C@@H](NC(=O)OC(C)(C)C)c4ccccc4)C[C@@](O)([C@@H](OC(=O)c4ccccc4)[C@H]21)C3(C)C [Docetaxel] (1000 nM): 134%
- Cn1cnc2c(F)c(Nc3ccc(Br)cc3Cl)c(C(=O)NOCCO)cc21 [Selumetinib] (10000 nM): -53.9%
- Oc1ncnc2[nH]ncc12 [Allopurinol] (10000 nM): 79%
- CC1(C)CNc2cc(NC(=O)c3cccnc3NCc3ccncc3)ccc21 [Motesanib] (10000 nM): 123%
- Cc1ccc([N+](=O)[O-])cc1S(=O)(=O)N(C)/N=C/c1cnc2ccc(Br)cn12 [PIK-75] (100 nM): 84.6%
- Cn1cc(C2=Nc3cc(NC(=O)C(N)C4CCCCC4)cc4c3C2=CNNC4=O)cn1 (stereo not given) (10000 nM): 13.5%
- CC(=O)c1c(C)c2cnc(Nc3ccc(N4CCNCC4)cn3)nc2n(C2CCCC2)c1=O [Palbociclib] (1000 nM): 167%
- Cn1cnc2c(F)c(Nc3ccc(Br)cc3Cl)c(C(=O)NOCCO)cc21 [Selumetinib] (100 nM): 75.3%
